B1: library; a variant is named by its letters at N, in order (parent)
chain: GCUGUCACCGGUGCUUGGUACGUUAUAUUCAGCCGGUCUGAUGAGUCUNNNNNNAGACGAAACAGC

variants of: B1; experiment: normalized RNA/DNA level with ligand (relative to sTRSVctl = 100) (log10 (% of sTRSVctl)); HEK293T overexpressing SLC46A1; ligand concentration (+) RNA-Seq: 6 mM; higher = less ribozyme self-cleavage, higher mRNA level; conditions: with (6R,S)-folinic acid; ligand present: yes
test_readout: normalized RNA/DNA level with ligand (log10)
Lab note: jot the number down without any unit.

Ask | Given the variant GCUGUCACCGGUGCUUGGUACGUUAUAUUCAGCCGGUCUGAUGAGUCUAGAUAGAGACGAAACAGC [AGAUAG] , what is its reported normalized RNA/DNA level with ligand (log10)?
Reply | 2.01

Ask | Next variant up: GCUGUCACCGGUGCUUGGUACGUUAUAUUCAGCCGGUCUGAUGAGUCUCUAUCAAGACGAAACAGC [CUAUCA]
Reply | 2.03

Ask | Request: GCUGUCACCGGUGCUUGGUACGUUAUAUUCAGCCGGUCUGAUGAGUCUAAUGCGAGACGAAACAGC [AAUGCG]
Reply | 2

Ask | What would you report for GCUGUCACCGGUGCUUGGUACGUUAUAUUCAGCCGGUCUGAUGAGUCUUGGCUAAGACGAAACAGC [UGGCUA] ?
Reply | 2.05

Ask | Item: GCUGUCACCGGUGCUUGGUACGUUAUAUUCAGCCGGUCUGAUGAGUCUUAAGGAAGACGAAACAGC [UAAGGA]
Reply | 2

Ask | Can you check GCUGUCACCGGUGCUUGGUACGUUAUAUUCAGCCGGUCUGAUGAGUCUUGGAGAAGACGAAACAGC [UGGAGA] next?
Reply | 2.01

Ask | Consider next the variant GCUGUCACCGGUGCUUGGUACGUUAUAUUCAGCCGGUCUGAUGAGUCUCUAGCCAGACGAAACAGC [CUAGCC] in the same way.
Reply | 1.98

Ask | // query: GCUGUCACCGGUGCUUGGUACGUUAUAUUCAGCCGGUCUGAUGAGUCUCGAGGCAGACGAAACAGC [CGAGGC]
Reply | 2.04

Ask | # iterate: GCUGUCACCGGUGCUUGGUACGUUAUAUUCAGCCGGUCUGAUGAGUCUGGGAUGAGACGAAACAGC [GGGAUG]
Reply | 2.04

Ask | Now the variant GCUGUCACCGGUGCUUGGUACGUUAUAUUCAGCCGGUCUGAUGAGUCUAUCGCUAGACGAAACAGC [AUCGCU]
Reply | 2.01

Ask | Please give the result for GCUGUCACCGGUGCUUGGUACGUUAUAUUCAGCCGGUCUGAUGAGUCUAUGAGUAGACGAAACAGC [AUGAGU] too.
Reply | 1.97

Ask | Now the same for GCUGUCACCGGUGCUUGGUACGUUAUAUUCAGCCGGUCUGAUGAGUCUUACUUAAGACGAAACAGC [UACUUA]
Reply | 2.01

Ask | Can you handle GCUGUCACCGGUGCUUGGUACGUUAUAUUCAGCCGGUCUGAUGAGUCUGAAUUGAGACGAAACAGC [GAAUUG] next?
Reply | 2

Ask | Would you mind doing GCUGUCACCGGUGCUUGGUACGUUAUAUUCAGCCGGUCUGAUGAGUCUUGCCGCAGACGAAACAGC [UGCCGC] as well?
Reply | 2.02

Ask | Another variant to look at: GCUGUCACCGGUGCUUGGUACGUUAUAUUCAGCCGGUCUGAUGAGUCUUAUCUGAGACGAAACAGC [UAUCUG]
Reply | 2

Ask | Please give the result for GCUGUCACCGGUGCUUGGUACGUUAUAUUCAGCCGGUCUGAUGAGUCUAUUAGUAGACGAAACAGC [AUUAGU] too.
Reply | 2.01

Ask | Same question, GCUGUCACCGGUGCUUGGUACGUUAUAUUCAGCCGGUCUGAUGAGUCUGAGCGUAGACGAAACAGC [GAGCGU] this time
Reply | 2

Ask | Would you kindly repeat that for GCUGUCACCGGUGCUUGGUACGUUAUAUUCAGCCGGUCUGAUGAGUCUGGUGUAAGACGAAACAGC [GGUGUA] ?
Reply | 2.01

Ask | Ok, now GCUGUCACCGGUGCUUGGUACGUUAUAUUCAGCCGGUCUGAUGAGUCUCGGUCAAGACGAAACAGC [CGGUCA]
Reply | 1.98

Ask | And then GCUGUCACCGGUGCUUGGUACGUUAUAUUCAGCCGGUCUGAUGAGUCUUUGUAGAGACGAAACAGC [UUGUAG] , what is it?
Reply | 1.99

Ask | Next record, please: GCUGUCACCGGUGCUUGGUACGUUAUAUUCAGCCGGUCUGAUGAGUCUACAGCAAGACGAAACAGC [ACAGCA]
Reply | 2.04

Ask | Repeat for the following variant: GCUGUCACCGGUGCUUGGUACGUUAUAUUCAGCCGGUCUGAUGAGUCUCUUAAGAGACGAAACAGC [CUUAAG]
Reply | 1.99

Ask | Field entry: GCUGUCACCGGUGCUUGGUACGUUAUAUUCAGCCGGUCUGAUGAGUCUGGCGAAAGACGAAACAGC [GGCGAA]
Reply | 2.04

Ask | Note, next up: GCUGUCACCGGUGCUUGGUACGUUAUAUUCAGCCGGUCUGAUGAGUCUAAGAGUAGACGAAACAGC [AAGAGU]
Reply | 2.02

Ask | Same thing, different variant: GCUGUCACCGGUGCUUGGUACGUUAUAUUCAGCCGGUCUGAUGAGUCUGCAGAAAGACGAAACAGC [GCAGAA]
Reply | 2.01

Ask | Try this variant too: GCUGUCACCGGUGCUUGGUACGUUAUAUUCAGCCGGUCUGAUGAGUCUCGCAGUAGACGAAACAGC [CGCAGU]
Reply | 2.04

Ask | Repeat with GCUGUCACCGGUGCUUGGUACGUUAUAUUCAGCCGGUCUGAUGAGUCUUACACGAGACGAAACAGC [UACACG]
Reply | 1.95

Ask | Now the variant GCUGUCACCGGUGCUUGGUACGUUAUAUUCAGCCGGUCUGAUGAGUCUUAAACUAGACGAAACAGC [UAAACU]
Reply | 2.02

Ask | Further, for GCUGUCACCGGUGCUUGGUACGUUAUAUUCAGCCGGUCUGAUGAGUCUAACGUAAGACGAAACAGC [AACGUA] ?
Reply | 2.02

Ask | Queued: GCUGUCACCGGUGCUUGGUACGUUAUAUUCAGCCGGUCUGAUGAGUCUUGACAGAGACGAAACAGC [UGACAG]
Reply | 1.97

Ask | Entry to check: GCUGUCACCGGUGCUUGGUACGUUAUAUUCAGCCGGUCUGAUGAGUCUUCUCCGAGACGAAACAGC [UCUCCG]
Reply | 2.02

Ask | Could you do the same for GCUGUCACCGGUGCUUGGUACGUUAUAUUCAGCCGGUCUGAUGAGUCUCGCUCGAGACGAAACAGC [CGCUCG] , please?
Reply | 2.02

Ask | Now try GCUGUCACCGGUGCUUGGUACGUUAUAUUCAGCCGGUCUGAUGAGUCUGGGAUUAGACGAAACAGC [GGGAUU] .
Reply | 2.04

Ask | What do you have for GCUGUCACCGGUGCUUGGUACGUUAUAUUCAGCCGGUCUGAUGAGUCUUCAGUAAGACGAAACAGC [UCAGUA] ?
Reply | 2

Ask | Repeat with GCUGUCACCGGUGCUUGGUACGUUAUAUUCAGCCGGUCUGAUGAGUCUUGUAUUAGACGAAACAGC [UGUAUU]
Reply | 2.01

Ask | Repeat for the following variant: GCUGUCACCGGUGCUUGGUACGUUAUAUUCAGCCGGUCUGAUGAGUCUGAACACAGACGAAACAGC [GAACAC]
Reply | 2.01

Ask | Lookup GCUGUCACCGGUGCUUGGUACGUUAUAUUCAGCCGGUCUGAUGAGUCUGAAUCUAGACGAAACAGC [GAAUCU]
Reply | 2.04

Ask | Now the variant GCUGUCACCGGUGCUUGGUACGUUAUAUUCAGCCGGUCUGAUGAGUCUAGCCUCAGACGAAACAGC [AGCCUC]
Reply | 2.03

Ask | Now this one: GCUGUCACCGGUGCUUGGUACGUUAUAUUCAGCCGGUCUGAUGAGUCUUGAGGGAGACGAAACAGC [UGAGGG]
Reply | 1.95

Ask | Further, for GCUGUCACCGGUGCUUGGUACGUUAUAUUCAGCCGGUCUGAUGAGUCUAUGAAUAGACGAAACAGC [AUGAAU] ?
Reply | 2

Sourced from the supplement of paper PMC6757056
